- TESTED SYSTEM: Phosphodiesterase 4 (Homo sapiens, UniProt P27815+Q08499+Q07343+Q08493)
- ASSAY COMMENT: Inhibition of human phosphodiesterase 4 from U937 cells
- Format: cell-based
- CONDITION PARAMETERS: u-937
MEASUREMENT NAME: IC50 (nM)
Give the quantity in nM, number only.

In [3]: df
Out[3]:
                                   compound  test_result
0  COc1ncc(C(=O)Nc2c(Cl)c[n+]([O-])cc2Cl)c2cc(C3CCOC3)oc12 (stereo not given)           23
1  COCc1cc2c(C(=O)Nc3c(Cl)c[n+]([O-])cc3Cl)cnc(OC)c2o1           47
2    CCc1cc2c(C(=O)Nc3ncncc3C#N)cnc(OC)c2o1          140

# IC50 lookup, item CCc1cc2c(C(=O)Nc3c(Cl)c[n+]([O-])cc3Cl)cnc(OC)c2o1
14

// query IC50 value for entry CCc1cc2c(C(=O)Nc3c(Cl)c[n+]([O-])cc3Cl)cnc(OC(F)F)c2o1
3.7

Cited source: ChEMBL document CHEMBL1135052
